The measured values listed here are drawn from patent US20090304692A1.

- experimental.system: human SMG-1 (hSMG-1) (Homo sapiens, UniProt Q96Q15)
- Sequence (Q96Q15 whole entry): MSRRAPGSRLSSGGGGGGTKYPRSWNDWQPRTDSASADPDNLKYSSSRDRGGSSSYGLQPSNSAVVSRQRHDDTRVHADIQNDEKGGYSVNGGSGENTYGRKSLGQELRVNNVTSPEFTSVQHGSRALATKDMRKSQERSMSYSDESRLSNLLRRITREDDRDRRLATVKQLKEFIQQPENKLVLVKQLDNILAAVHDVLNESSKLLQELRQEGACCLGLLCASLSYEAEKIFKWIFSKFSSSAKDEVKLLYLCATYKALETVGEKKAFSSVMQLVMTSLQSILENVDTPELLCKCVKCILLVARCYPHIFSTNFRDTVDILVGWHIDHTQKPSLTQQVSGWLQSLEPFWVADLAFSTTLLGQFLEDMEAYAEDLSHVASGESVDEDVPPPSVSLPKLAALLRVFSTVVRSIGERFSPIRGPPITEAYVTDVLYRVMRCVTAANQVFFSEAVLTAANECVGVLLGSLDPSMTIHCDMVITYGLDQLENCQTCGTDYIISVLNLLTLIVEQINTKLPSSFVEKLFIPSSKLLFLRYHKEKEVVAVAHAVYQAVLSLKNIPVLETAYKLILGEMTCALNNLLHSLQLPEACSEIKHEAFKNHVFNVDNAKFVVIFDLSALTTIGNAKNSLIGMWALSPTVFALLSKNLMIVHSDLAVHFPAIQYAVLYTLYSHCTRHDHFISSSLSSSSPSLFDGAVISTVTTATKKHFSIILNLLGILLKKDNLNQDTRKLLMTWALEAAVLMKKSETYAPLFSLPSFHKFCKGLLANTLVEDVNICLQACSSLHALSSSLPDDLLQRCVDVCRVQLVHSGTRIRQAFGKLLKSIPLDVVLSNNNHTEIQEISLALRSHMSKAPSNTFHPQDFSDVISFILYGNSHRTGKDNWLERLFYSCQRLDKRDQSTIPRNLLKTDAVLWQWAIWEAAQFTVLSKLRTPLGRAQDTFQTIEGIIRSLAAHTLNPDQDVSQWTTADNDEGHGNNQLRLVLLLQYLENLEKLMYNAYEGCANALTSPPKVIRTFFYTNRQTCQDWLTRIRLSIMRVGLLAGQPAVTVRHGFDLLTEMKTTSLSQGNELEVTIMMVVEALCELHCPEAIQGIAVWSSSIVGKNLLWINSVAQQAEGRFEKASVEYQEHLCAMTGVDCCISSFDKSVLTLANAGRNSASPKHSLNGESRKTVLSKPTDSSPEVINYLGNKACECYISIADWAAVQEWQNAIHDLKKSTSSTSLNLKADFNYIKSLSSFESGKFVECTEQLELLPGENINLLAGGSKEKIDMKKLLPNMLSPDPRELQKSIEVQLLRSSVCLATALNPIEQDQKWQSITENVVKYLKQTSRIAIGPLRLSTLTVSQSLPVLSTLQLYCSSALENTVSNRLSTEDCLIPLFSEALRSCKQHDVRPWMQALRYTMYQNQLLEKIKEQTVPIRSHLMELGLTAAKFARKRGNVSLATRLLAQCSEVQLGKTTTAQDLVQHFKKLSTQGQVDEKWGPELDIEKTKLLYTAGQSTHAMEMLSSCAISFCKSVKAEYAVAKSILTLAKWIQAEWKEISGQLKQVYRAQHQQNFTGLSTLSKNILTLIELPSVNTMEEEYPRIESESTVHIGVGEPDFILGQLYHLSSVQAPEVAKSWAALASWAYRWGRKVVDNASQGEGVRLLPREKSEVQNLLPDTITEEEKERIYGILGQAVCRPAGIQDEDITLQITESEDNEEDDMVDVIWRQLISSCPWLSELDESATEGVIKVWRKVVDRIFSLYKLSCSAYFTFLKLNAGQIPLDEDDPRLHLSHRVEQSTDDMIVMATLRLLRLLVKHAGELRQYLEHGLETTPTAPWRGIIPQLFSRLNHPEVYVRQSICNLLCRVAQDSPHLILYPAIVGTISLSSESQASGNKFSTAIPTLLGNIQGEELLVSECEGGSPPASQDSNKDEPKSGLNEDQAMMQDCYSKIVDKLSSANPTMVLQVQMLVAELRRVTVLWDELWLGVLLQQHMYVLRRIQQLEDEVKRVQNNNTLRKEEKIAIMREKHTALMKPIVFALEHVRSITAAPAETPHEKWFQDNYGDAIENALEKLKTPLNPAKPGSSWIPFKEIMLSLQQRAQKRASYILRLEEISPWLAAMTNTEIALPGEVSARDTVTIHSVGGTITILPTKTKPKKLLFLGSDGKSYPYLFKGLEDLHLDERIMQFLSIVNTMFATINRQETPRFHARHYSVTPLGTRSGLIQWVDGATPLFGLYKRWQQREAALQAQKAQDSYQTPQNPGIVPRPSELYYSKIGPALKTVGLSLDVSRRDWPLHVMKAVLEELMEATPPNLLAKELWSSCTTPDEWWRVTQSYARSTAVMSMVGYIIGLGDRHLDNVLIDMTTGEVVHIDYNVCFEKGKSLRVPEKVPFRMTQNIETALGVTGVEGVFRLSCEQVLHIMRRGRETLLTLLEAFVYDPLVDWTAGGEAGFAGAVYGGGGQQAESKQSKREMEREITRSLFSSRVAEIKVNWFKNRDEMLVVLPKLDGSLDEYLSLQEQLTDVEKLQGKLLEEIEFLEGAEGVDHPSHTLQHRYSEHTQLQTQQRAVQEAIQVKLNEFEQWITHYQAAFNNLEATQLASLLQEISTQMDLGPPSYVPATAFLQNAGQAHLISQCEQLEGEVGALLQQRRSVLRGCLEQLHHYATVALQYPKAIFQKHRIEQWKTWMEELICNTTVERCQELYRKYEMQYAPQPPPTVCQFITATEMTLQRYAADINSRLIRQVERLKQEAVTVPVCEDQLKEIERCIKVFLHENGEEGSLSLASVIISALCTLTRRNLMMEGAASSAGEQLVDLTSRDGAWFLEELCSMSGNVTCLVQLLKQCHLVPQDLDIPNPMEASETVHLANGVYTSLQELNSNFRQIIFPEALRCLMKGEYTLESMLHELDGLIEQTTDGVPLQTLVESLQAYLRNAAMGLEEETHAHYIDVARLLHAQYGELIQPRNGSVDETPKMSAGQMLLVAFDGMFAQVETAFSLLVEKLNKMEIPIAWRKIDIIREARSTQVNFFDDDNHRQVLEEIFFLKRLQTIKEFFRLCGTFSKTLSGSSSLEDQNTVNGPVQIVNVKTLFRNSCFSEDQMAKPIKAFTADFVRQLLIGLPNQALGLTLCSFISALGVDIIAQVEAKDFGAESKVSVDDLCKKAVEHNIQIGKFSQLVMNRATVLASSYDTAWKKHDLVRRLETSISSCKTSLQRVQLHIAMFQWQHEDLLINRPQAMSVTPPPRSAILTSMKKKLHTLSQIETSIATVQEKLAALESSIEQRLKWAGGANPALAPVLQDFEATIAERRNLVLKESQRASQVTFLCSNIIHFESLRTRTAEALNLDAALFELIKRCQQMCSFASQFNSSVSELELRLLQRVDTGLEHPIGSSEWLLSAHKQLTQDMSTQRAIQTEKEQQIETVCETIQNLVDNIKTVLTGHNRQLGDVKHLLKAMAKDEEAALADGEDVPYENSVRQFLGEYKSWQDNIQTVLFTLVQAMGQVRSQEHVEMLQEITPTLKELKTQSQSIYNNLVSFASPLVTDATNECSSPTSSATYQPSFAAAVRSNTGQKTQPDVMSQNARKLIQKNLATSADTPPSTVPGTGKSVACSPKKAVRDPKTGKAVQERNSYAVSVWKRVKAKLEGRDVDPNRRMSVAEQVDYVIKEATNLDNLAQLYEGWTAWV
- assay.explanation: hSMG-1 kinase assay (DELFIA)
property.measured: IC50 (nM)

c1cc(-c2nc(N3CCOCC3)nc(N3CCOCC3)n2)ccc1NC1=NCCN1 [Example 474] ... 5650

[P] CNC(=O)Nc1ccc(-c2nc(-c3ccc(NC(=O)Nc4cccc(C(N)=O)c4)cc3)nc(N3CC4CCC(C3)O4)n2)cc1 [Example 465]
[Q] CNC(=O)Nc1ccc(-c2nc(N3CCOCC3)nc(N3CCOCC3)n2)cc1 [Example 476]
*Q* P or Q : whose IC50 is greater? Field: selected label. Fill in the label of the entry you choose.
*A* Q
(Q: 19 nM, P: 5 nM)

[I] O=C(Nc1ccc(-c2nc(N3CCOCC3)nc(N3CCOCC3)n2)cc1)C(F)F [Example 473]
[II] CNC(=O)Nc1ccc(-c2nc(-c3ccc(NC(=O)Nc4ccc(C(N)=O)cc4)cc3)nc(N3C(C)COCC3C)n2)cc1 (stereo not shown) [Example 470]
*Q* I or II : whose IC50 is greater? Field: selected label. Fill in the label of the entry you choose.
*A* I

###

- experimental.system: PI3K-γ (Homo sapiens, UniProt P48736)
- Sequence (P48736 whole entry, species assumed): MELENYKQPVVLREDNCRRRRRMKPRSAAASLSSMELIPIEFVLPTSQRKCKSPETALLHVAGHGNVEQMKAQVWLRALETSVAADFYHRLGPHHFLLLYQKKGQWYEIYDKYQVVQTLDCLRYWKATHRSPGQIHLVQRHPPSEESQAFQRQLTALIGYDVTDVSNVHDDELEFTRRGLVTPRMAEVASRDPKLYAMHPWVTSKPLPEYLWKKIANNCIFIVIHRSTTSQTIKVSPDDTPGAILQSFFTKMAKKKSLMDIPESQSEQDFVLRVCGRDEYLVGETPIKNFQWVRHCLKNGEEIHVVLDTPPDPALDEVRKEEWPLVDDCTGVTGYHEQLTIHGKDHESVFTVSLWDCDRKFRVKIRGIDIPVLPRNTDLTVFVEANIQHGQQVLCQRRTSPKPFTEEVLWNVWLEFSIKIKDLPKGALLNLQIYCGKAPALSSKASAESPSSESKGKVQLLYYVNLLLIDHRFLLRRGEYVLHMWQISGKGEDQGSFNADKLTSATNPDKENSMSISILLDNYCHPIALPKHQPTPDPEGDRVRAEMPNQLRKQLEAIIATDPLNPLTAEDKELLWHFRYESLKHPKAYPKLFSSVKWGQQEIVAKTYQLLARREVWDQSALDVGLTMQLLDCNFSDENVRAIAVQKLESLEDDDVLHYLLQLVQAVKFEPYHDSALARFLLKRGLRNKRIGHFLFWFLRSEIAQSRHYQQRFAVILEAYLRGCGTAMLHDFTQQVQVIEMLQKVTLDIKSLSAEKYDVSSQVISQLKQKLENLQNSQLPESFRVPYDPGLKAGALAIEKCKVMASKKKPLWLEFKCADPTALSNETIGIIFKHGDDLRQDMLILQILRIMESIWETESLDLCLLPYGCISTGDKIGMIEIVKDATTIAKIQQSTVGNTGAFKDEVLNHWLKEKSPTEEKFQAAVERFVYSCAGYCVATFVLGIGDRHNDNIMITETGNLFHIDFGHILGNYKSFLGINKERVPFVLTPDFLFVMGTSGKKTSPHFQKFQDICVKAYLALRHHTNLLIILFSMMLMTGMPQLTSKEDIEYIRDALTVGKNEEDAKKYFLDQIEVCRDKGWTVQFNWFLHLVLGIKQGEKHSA
- assay.explanation: PI3K-gamma fluorescence polarization assay
- experimental.context: read-out: IC50 PI3Kγ
pIC50: −log10 of the molar value.
property.measured: pIC50

[a] O=C(Nc1ccc(C(=O)NCc2ccccn2)cc1)Nc1ccc(-c2nc(N3CCOCC3)nc(N3CCOCC3)n2)cc1
[b] C[C@@H]1COCCN1c1nc(-c2ccc(NC(=O)Nc3ccc(C(=O)N4CCN(C)CC4)cc3)cc2)nc(N2CCOC[C@H]2C)n1
*Q* Select the item whose pIC50 value is smaller, choosing between a and b . Field: selected label. Fill in the label of the entry you choose.
*A* b
(b: 6.05, a: 7.70)

[1] Cc1ccc(-c2nc(-c3ccc(NC(=O)Nc4cccc(C(=O)O)c4)cc3)nc(N3CCOCC3)n2)cc1
[2] CN(C)CC(=O)Nc1ccc(NC(=O)Nc2ccc(-c3nc(N4CC5CCC(C4)O5)nc(N4CC5CCC(C4)O5)n3)cc2)cc1
*Q* Select the item whose pIC50 value is smaller, choosing between 1 and 2 . Field: selected label. Fill in the label of the entry you choose.
*A* 2

###

- experimental.system: PI3K-α (Homo sapiens)
- assay.explanation: PI3K-alpha fluorescence polarization assay
- experimental.context: read-out: IC50 PI3Kα; listed as 334
property.measured: IC50 (nM)
Report as a plain number; the unit nM is understood.

*Q* Would you please give the reported IC50 of CN1CCN(c2ccc(Nc3nc(-c4ccc(NC(=O)Nc5ccc(C(N)=O)cc5)cc4)nc(N4CC5CCC(C4)O5)n3)cc2)CC1 [Example 318] with PI3K-α (Homo sapiens)?
*A* 16

###

- experimental.system: PI3K-γ (Homo sapiens)
- assay.explanation: PI3K-gamma fluorescence polarization assay
- experimental.context: read-out: IC50 PI3Kγ; listed as 510
property.measured: pIC50
pIC50 is defined as minus the log10 of a concentration measured in mol/L.

*Q* Would you please give the reported pIC50 of CN(C)C1CCN(C(=O)c2ccc(NC(=O)Nc3ccc(-c4nc(C5CCOCC5)nc(N5CCOCC5)n4)cc3)cc2)CC1 with PI3K-γ (Homo sapiens)?
*A* 8.20
